Field: % IC50 to SRF813-hIgG1. Provide a value for each of the binders that follow.
Biological target: T1, human PVRIG-mFc protein (Acro, PVG-H5253) (human, UniProt Q6DKI7 41-171, limits assumed)
T1 construct: bought protein
T1 sequence (looked up): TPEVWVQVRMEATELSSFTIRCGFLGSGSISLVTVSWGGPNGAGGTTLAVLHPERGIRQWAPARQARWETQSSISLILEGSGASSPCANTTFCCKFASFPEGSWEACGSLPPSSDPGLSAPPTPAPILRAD
Test: FACS competition, PVRIG-mFc binding to CHO-K1-CD112 cells, competitor CD112 on cells
Give bare numbers, in %.

Worked examples follow.
binder="PVRIG-A30 (Fc fusion, heavy chain antibody VHH-hinge-CH2-CH3, human IgG1 constant part; not shown: human IgG1 hinge-CH2-CH3) QVQLVESGGGLVQPGGSLRLSCAASGRTDSMNVMGWFRRAPGKEREFVARIKWNGDTTYTAYADFLKGRFTLYGAVARNRVYLQMNSLQPEDTAVYYCAAGEVSGSSYSPDYGMHYWGKGTLVTVSS" experimental_value=64.4
binder="PVRIG-A118 (Fc fusion, heavy chain antibody VHH-hinge-CH2-CH3, human IgG1 constant part; not shown: human IgG1 hinge-CH2-CH3) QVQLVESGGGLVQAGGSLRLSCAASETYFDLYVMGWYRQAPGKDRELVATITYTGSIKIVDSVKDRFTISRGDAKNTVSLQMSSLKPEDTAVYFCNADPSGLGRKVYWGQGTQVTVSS" experimental_value=97.4

Could you now consider this next binder?
INPUT: Given PVRIG-A117 (Fc fusion, heavy chain antibody VHH-hinge-CH2-CH3, human IgG1 constant part; not shown: human IgG1 hinge-CH2-CH3) EVQVVESGGGLVQAGGSLRLSCTASEHIYDLYIMGWYRQAPGKDRELVATITYTGSIYIADSVKDRFTISRGNAKNTVSLQMSGLKPEDTAVYYCNADPSGLGRKLYWGQGTQVTVSS , state its recorded % IC50 to SRF813-hIgG1.
OUTPUT: 118
